# measurementProtocol: MTT cell viability assay, compounds at 5, 1 and 0.2 μM, 48 hours
# Type: cell-based
# measurementContext: human, A549 tumor cells, 5 μM
# Description: MTT assay is used to determine cell proliferation, percent of viable cells, and cytotoxicity. […] To each of the 96 well plates containing A549 and a control, 5, 1, and 0.2 μM of the exemplary compounds 1-200 were add. […] Cell viability was measured by adding MTT (Sigma) at 5 mg/ml for 4 h to the cells and then removing the medium and resuspending each well in 50 μl DMSO to solubilize the crystals. The 96-well plates were read on a plate-scanning spectrophotometer (BioTek) at an absorbance of 560 nm. […]
We begin with a simple list: items and their reported viability at 48 h, 5 µM.

Examples from the recorded data:
- COc1ccc2c(Oc3ccc(-c4nnc(Nc5cccc(C(F)(F)F)c5)o4)cc3)ccnc2c1: > 70%
- CSc1nc(N)cc(Oc2ccc(-c3nnc(Nc4cc(C(F)(F)F)cc(C(F)(F)F)c4)[nH]3)cc2)n1: > 70%
- FC(F)(F)c1cccc(Nc2nnc(-c3cccc(Oc4ccncc4)c3)[nH]2)c1: 50 to 70%

Data request: viability at 48 h, 5 µM for Cc1cc(Oc2cccc(-c3nnc(Nc4cccc(C(F)(F)F)c4)[nH]3)c2)ccn1 ?
Data returned: 50 to 70%
